Molecular target: UniProt:P42574
measured-attribute: Ki (nM)
Number only, in nM; omit the unit.

Query Ki on UniProt:P42574 for COc1ccc(CN2C(=O)C(=O)c3cc(S(=O)(=O)N4CCCC4COc4cccnc4)ccc32)cc1 (stereo not shown) [Compound 21c] 4.4

---

Entries and their IC50
Target: caspase 6 (Homo sapiens, UniProt P55212)
Construct: purchased Sigma-Aldrich (St. Louis, Mo.)
Experiment: Enzyme inhibition assay, caspase 6 (fluorogenic Ac-VEID-AMC)
Assay type: biochemical
Details: Table 2; read-out: IC50 (nM) Caspase 6
Number only, in nM; omit the unit.

# compound, IC50, nM
rows = [
    ("N#CC(C#N)=C1C(=O)Nc2ccc(S(=O)(=O)N3CCCC3COc3ccccc3)cc21 (centres unmarked) [Compound 26]", 407),
]

Query IC50 on caspase 6 (Homo sapiens, UniProt P55212) for CN1C(=O)C(=C(C#N)C#N)c2cc(S(=O)(=O)N3CCCC3COc3ccccc3)ccc21 (centres unmarked) [Compound 27a] 698

Query IC50 on caspase 6 (Homo sapiens, UniProt P55212) for N#CC(C#N)=C1C(=O)N(Cc2ccc(OCCF)cc2)c2ccc(S(=O)(=O)N3CCC[C@H]3COc3ccccc3)cc21 [WC-II-92] 927

Query IC50 on caspase 6 (Homo sapiens, UniProt P55212) for N#CC(C#N)=C1C(=O)Nc2ccc(S(=O)(=O)N3CC[C@H]3COc3ccccc3)cc21 [WC-II-54] 540

Query IC50 on caspase 6 (Homo sapiens, UniProt P55212) for N#CC(C#N)=C1C(=O)N(Cc2ccc(O)cc2)c2ccc(S(=O)(=O)N3CCC[C@H]3COc3ccccc3)cc21 [Compound 27c] 744

Query IC50 on caspase 6 (Homo sapiens, UniProt P55212) for N#CC(C#N)=C1C(=O)N(Cc2ccc(O)cc2)c2ccc(S(=O)(=O)N3CCCC3COc3cccnc3)cc21 (centres unmarked) [Compound 30b] 850

Query IC50 on caspase 6 (Homo sapiens, UniProt P55212) for N#CC(C#N)=C1C(=O)N(Cc2ccc(OCCF)cc2)c2ccc(S(=O)(=O)N3CCC[C@H]3COc3cccnc3)cc21 [WC-II-103] 770

Query IC50 on caspase 6 (Homo sapiens, UniProt P55212) for N#CC(C#N)=C1C(=O)N(Cc2ccc(Br)cc2)c2ccc(S(=O)(=O)N3CCCC3COc3ccccc3)cc21 (centres unmarked) [Compound 27d] 840

Query IC50 on caspase 6 (Homo sapiens, UniProt P55212) for COc1ccc(CN2C(=O)C(=C(C#N)C#N)c3cc(S(=O)(=O)N4CC[C@H]4COc4cccnc4)ccc32)cc1 [WC-II-87] 450

Query IC50 on caspase 6 (Homo sapiens, UniProt P55212) for N#CC(C#N)=C1C(=O)N(Cc2ccc(OCCF)cc2)c2ccc(S(=O)(=O)N3CC[C@H]3COc3cccnc3)cc21 [WC-II-104] 580

---

Entries and their IC50
Target: caspase 7 (Homo sapiens)
Construct: purchased Sigma-Aldrich (St. Louis, Mo.)
Test: Enzyme inhibition assay, caspase 7 (fluorogenic Ac-DEVD-AMC)
Format: biochemical
Conditions: IC50 (nM) Caspase 7, Table 2
Number only, in nM; omit the unit.

# compound, system, IC50, nM
measured = [
    ("N#CC(C#N)=C1C(=O)N(Cc2ccccc2)c2ccc(S(=O)(=O)N3CCCC3COc3ccccc3)cc21 (centres unmarked) [Compound 27b]", "caspase 7 (Homo sapiens)", 51.7),
    ("N#CC(C#N)=C1C(=O)N(Cc2ccc(O)cc2)c2ccc(S(=O)(=O)N3CCCC3COc3cccnc3)cc21 (centres unmarked) [Compound 30b]", "caspase 7 (Homo sapiens)", 28.3),
    ("N#CC(C#N)=C1C(=O)N(Cc2ccc(Br)cc2)c2ccc(S(=O)(=O)N3CCCC3COc3cccnc3)cc21 (centres unmarked) [Compound 30c]", "caspase 7 (Homo sapiens)", 26.3),
    ("COc1ccc(CN2C(=O)C(=C(C#N)C#N)c3cc(S(=O)(=O)N4CCCC4COc4cccnc4)ccc32)cc1 (centres unmarked) [Compound 30d]", "caspase 7 (Homo sapiens)", 29.6),
]

Would you kindly look at the next entry?
Recorded IC50 of N#CC(C#N)=C1C(=O)N(Cc2ccccc2)c2ccc(S(=O)(=O)N3CCCC3COc3cccnc3)cc21 (centres unmarked) [Compound 30a] , please. 32.8

---

Entries and their IC50
Target: caspase-3 (Homo sapiens)
Construct: purchased Sigma-Aldrich (St. Louis, Mo.)
Sequence (P42574 29-175 limits assumed): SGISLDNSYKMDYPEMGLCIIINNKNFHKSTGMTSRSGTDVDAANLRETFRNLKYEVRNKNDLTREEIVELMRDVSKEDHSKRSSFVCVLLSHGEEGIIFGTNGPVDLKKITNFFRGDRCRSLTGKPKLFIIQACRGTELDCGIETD
Sequence (P42574 176-277 limits assumed): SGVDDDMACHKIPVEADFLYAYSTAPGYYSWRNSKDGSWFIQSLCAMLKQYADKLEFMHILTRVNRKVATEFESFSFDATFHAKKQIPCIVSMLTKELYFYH
Experiment: Enzyme inhibition assay, caspase 3 (fluorogenic Ac-DEVD-AMC)
Format: biochemical
Settings: IC50 (nM) Caspase 3, Table 1
Number only, in nM; omit the unit.

# molecule, measured-attribute, value
rows = [
    ("O=C1C(=O)N(Cc2ccc(Br)cc2)c2ccc(S(=O)(=O)N3CCCC3COc3ccccc3)cc21 (centres unmarked) [Compound 25d]", "IC50", 9.9),
]

Would you kindly look at the next entry?
Recorded IC50 of O=C1C(=O)N(Cc2ccc(Br)cc2)c2ccc(S(=O)(=O)N3CCCC3COc3cccnc3)cc21 (centres unmarked) [Compound 28c] , please. 3.6

---

Entries and their IC50
Target: caspase 7 (Homo sapiens, UniProt P55210)
Construct: purchased Sigma-Aldrich (St. Louis, Mo.)
Sequence (P55210 24-198 limits assumed): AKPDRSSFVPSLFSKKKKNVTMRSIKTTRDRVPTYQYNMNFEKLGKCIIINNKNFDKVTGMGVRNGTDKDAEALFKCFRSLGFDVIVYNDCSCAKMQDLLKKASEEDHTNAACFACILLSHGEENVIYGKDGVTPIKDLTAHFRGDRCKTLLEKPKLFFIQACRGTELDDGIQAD
Sequence (P55210 207-303 limits assumed): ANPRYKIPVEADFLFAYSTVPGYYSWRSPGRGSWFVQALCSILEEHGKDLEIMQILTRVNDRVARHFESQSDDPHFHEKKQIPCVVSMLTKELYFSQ
Assay: Enzyme inhibition assay, caspase 7 (fluorogenic Ac-DEVD-AMC)
Type: biochemical
Conditions: Table 5; read-out: IC50 (nM) caspase-7
Number only, in nM; omit the unit.

# compound, system, measured-attribute, output-unit, value
measured = [
    ("COc1ccc(CN2C(=O)C(=O)c3cc(S(=O)(=O)N4CC[C@H]4COc4ccccc4)ccc32)cc1 [Compound 18c]", "caspase 7 (Homo sapiens, UniProt P55210)", "IC50", "nM", 23.2),
    ("O=C1C(=O)N(Cc2cccc(F)n2)c2ccc(S(=O)(=O)N3CC[C@H]3COc3ccccc3)cc21 [Compound 18i]", "caspase 7 (Homo sapiens, UniProt P55210)", "IC50", "nM", 22.7),
    ("O=C1C(=O)N(Cc2ccccc2F)c2ccc(S(=O)(=O)N3CC[C@H]3COc3ccccc3)cc21 [Compound 18f]", "caspase 7 (Homo sapiens, UniProt P55210)", "IC50", "nM", 26),
]

Recorded IC50 of CSc1ccc(CN2C(=O)C(=O)c3cc(S(=O)(=O)N4CC[C@H]4COc4ccccc4)ccc32)cc1 [Compound 18d] , please. 26.7

---

Entries and their log10 of IC50
Target: caspase 6 (Homo sapiens, UniProt P55212)
Construct: purchased Sigma-Aldrich (St. Louis, Mo.)
Sequence (P55212 24-179 limits assumed): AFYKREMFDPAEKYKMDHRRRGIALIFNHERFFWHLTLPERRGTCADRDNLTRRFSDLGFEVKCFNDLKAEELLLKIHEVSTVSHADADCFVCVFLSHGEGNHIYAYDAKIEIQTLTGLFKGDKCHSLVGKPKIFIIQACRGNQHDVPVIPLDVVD
Sequence (P55212 194-293 limits assumed): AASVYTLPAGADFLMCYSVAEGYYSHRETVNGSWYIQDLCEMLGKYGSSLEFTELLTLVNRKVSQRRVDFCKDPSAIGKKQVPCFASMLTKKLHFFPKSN
Experiment: Enzyme inhibition assay, caspase 6 (fluorogenic Ac-VEID-AMC)
Type: biochemical
Recorded IC50 (log10, nM)

# molecule, measured-attribute, value
measured = [
    ("N#CC(C#N)=C1C(=O)N(Cc2ccccc2)c2ccc(S(=O)(=O)N3CCCC3COc3ccccc3)cc21 (stereo not shown) [Compound 27b]", "log10 of IC50", 2.96),
    ("N#CC(C#N)=C1C(=O)N(Cc2ccccc2)c2ccc(S(=O)(=O)N3CCCC3COc3cccnc3)cc21 (stereo not shown) [Compound 30a]", "log10 of IC50", 2.92),
    ("COc1ccc(CN2C(=O)C(=C(C#N)C#N)c3cc(S(=O)(=O)N4CCCC4COc4cccnc4)ccc32)cc1 (stereo not shown) [Compound 30d]", "log10 of IC50", 2.79),
    ("N#CC(C#N)=C1C(=O)N(Cc2ccc(Br)cc2)c2ccc(S(=O)(=O)N3CCCC3COc3cccnc3)cc21 (stereo not shown) [Compound 30c]", "log10 of IC50", 2.71),
    ("O=C1C(=O)N(Cc2ccc(Br)cc2)c2ccc(S(=O)(=O)N3CCCC3COc3ccccc3)cc21 (stereo not shown) [Compound 25d]", "log10 of IC50", 3.95),
]

Recorded log10 of IC50 of N#CC(C#N)=C1C(=O)N(Cc2ccc(O)cc2)c2ccc(S(=O)(=O)N3CCCC3COc3cccnc3)cc21 (stereo not shown) [Compound 30b] , please. 2.81

Recorded log10 of IC50 of O=C1C(=O)N(Cc2ccc(O)cc2)c2ccc(S(=O)(=O)N3CCCC3COc3cccnc3)cc21 (stereo not shown) [Compound 28b] , please. 3.98
